Attribution: patent US20240050574A1

method_description: mRNA encapsulation efficiency by Ribogreen RNA assay
Type: physicochemical
measurement_conditions: Table 6 (Example 4, HA mRNA); ionizable lipid/DSPC/Chol/DMG-PEG2000 50/10/38.5/1.5 mol %; N/P 10
Protocol: Lipid based nanoparticles are produced by microfluidic mixing of an mRNA solution in sodium acetate buffer (100 mM, pH4) and lipid solution in a 2:1 volume ratio at a speed of 9 mL/min using the NanoAssemblr Benchtop (Precision Nanosystems). […]
reported_metric: E.E. (encapsulation efficiency) (%)
Numbers only, in %.

CCCCCCCC/C=C\CCCCCCCC(=O)OCC(CNC(=O)OCCSSCCOC(=O)NCCN1CCCCCC1)OC(=O)CCCCCCC/C=C\CCCCCCCC (stereo not shown) [S-Ac7-DOg]    98
CCCCCCCCC(CCCCCC)C(=O)OCCN(CCOC(=O)C(CCCCCC)CCCCCCCC)C(=O)OCCSSCCOC(=O)NCCN(C)C (stereo not shown) [S-Adm-DHDa]    98
CCCCCCCCC(CCCCCC)C(=O)OCCN(CCOC(=O)C(CCCCCC)CCCCCCCC)C(=O)OCCSSCCOC(=O)NCCN1CCCCCC1 (stereo not shown) [S-Ac7-DHDa]    97

Turning now to a further molecule:
Ask | Could you share which E.E. (encapsulation efficiency) value was measured for CCCCCCCCC(CCCCCC)C(=O)OCCN(CCOC(=O)C(CCCCCC)CCCCCCCC)C(=O)OCCSSCCOC(=O)NCCN1CCN(C)CC1 (stereo not shown) [S-Amp-DHDa] ?
Reply | 99
